System: TZM
protocol_text: Cytotoxicity against human TZM-bl cells assessed as reduction in cell viability incubated for 3 days by MTS assay
Assay type: toxicity, cell-based
condition_label: tzm, 72 h, time 3 day, read-out: CC50
endpoint_label: CC50

>>> endpoint_value("NC[C@H](NC(=O)c1ccc(-c2ccc(C(F)(F)F)c(F)c2)[nH]1)c1nc(C(O)CO)cs1 (some centres undefined)")
"72.4 µM"
>>> endpoint_value("NC[C@H](NC(=O)c1ccc(-c2ccc(C(F)(F)F)c(F)c2)[nH]1)c1nc(CCO)cs1")
"24.4 µM"
>>> endpoint_value("NC[C@H](NC(=O)c1ccc(-c2ccc(C(F)(F)F)cc2F)[nH]1)c1nc(CCO)cs1")
"39.6 µM"
>>> endpoint_value("NC[C@@H](NC(=O)c1ccc(-c2ccc(C(F)(F)F)c(F)c2)[nH]1)c1nc(C(O)CO)cs1 (some centres undefined)")
"56.3 µM"

###

Entries and their CC50
Test system: TZM
protocol_text: Cytotoxicity against human TZM-bl cells assessed as reduction in cell viability incubated for 3 days by MTS assay
Type: toxicity, cell-based
condition_label: tzm, 72 h, time 3 day, read-out: CC50
endpoint_label: CC50 (µM)

>>> endpoint_value("CC(C)(N)[C@@H](NC(=O)c1ccc(-c2ccc(C(F)(F)F)cc2)[nH]1)c1ncc(CO)s1")
23.1
>>> endpoint_value("CC(CN)(NC(=O)c1ccc(-c2ccc(C(F)(F)F)c(F)c2)[nH]1)c1nc(CO)cs1 (racemic)")
45.3
>>> endpoint_value("NC[C@H](NC(=O)c1ccc(-c2ccc(C(F)(F)F)c(F)c2)[nH]1)c1nc(CCCO)cs1")
22.6
>>> endpoint_value("NC[C@H](NC(=O)c1ccc(-c2ccc(C(F)(F)F)cc2F)[nH]1)c1nc(CO)cs1")
25.7
>>> endpoint_value("CC(C)(N)[C@H](NC(=O)c1ccc(-c2ccc(C(F)(F)F)cc2)[nH]1)c1ncc(CO)s1")
25.1
>>> endpoint_value("COC(=O)c1csc([C@H](CN)NC(=O)c2ccc(-c3ccc(C(F)(F)F)c(F)c3)[nH]2)n1")
41.6
>>> endpoint_value("NC[C@@H](NC(=O)c1ccc(-c2ccc(C(F)(F)F)c(F)c2)[nH]1)c1nc(C(N)=O)cs1")
25.9
>>> endpoint_value("NC[C@@H](NC(=O)c1ccc(-c2ccc(C(F)(F)F)cc2C(F)(F)F)[nH]1)c1nc(CO)cs1")
37.6
